Attribute: pKd
Biological target: T1, human KLK5 (human, UniProt Q9Y337 67-293)
T1 construct: also called huKLK5; KLK5 AMC
T1 sequence: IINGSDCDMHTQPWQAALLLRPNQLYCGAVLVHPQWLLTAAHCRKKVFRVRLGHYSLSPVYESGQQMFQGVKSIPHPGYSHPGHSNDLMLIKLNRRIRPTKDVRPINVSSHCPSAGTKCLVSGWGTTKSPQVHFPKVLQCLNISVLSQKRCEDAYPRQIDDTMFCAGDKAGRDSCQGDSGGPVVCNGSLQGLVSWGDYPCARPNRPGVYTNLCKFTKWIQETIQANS
Test: SPR, one-armed monovalent antibody
pKd: −log10 of the molar value.
metric name: pKd

1. OA.hu.10C5.N53V.F92Y.S95F (antibody, V domains shown, One-armed (OA) monovalent anti-KLK5 antibody with a human IgG1 Fc, with Q38E/Q39K; constant regions and dummy Fc chain not specified) VH: EVQLVESGGGLVQPGGSLRLSCAASGFSLSSYGVTWVRKAPGKGLEWIGYITSVYGVSYYASWAKSRSTISRDTSKNTVYLQMGSLRAEDMAVYYCARENPDYGYAYDAWGQGTTVTVSS VL: AIRMTQSPSSFSASTGDRVTITCQASESISNELSWYQEKPGKAPKLLIYYASTLASGVPSRFSGSGSGTDFTLTISSLQPEDFATYYCAQGYGSFGVENVFGGGTKVEIK; 12.07
2. OA.hu.10C5.N53V (antibody, V domains shown, One-armed (OA) monovalent anti-KLK5 antibody with a human IgG1 Fc, without Q38E/Q39K; constant regions and dummy Fc chain not specified) VH: EVQLVESGGGLVQPGGSLRLSCAASGFSLSSYGVTWVRQAPGKGLEWIGYITSVYGVSYYASWAKSRSTISRDTSKNTVYLQMGSLRAEDMAVYYCARENPDYGYAYDAWGQGTTVTVSS VL: AIRMTQSPSSFSASTGDRVTITCQASESISNELSWYQQKPGKAPKLLIYYASTLASGVPSRFSGSGSGTDFTLTISSLQPEDFATYYCAQGFGSSGVENVFGGGTKVEIK; 10.87
3. OA.hu.10C5.N53V.S95F (antibody, V domains shown, One-armed (OA) monovalent anti-KLK5 antibody with a human IgG1 Fc, with Q38E/Q39K; constant regions and dummy Fc chain not specified) VH: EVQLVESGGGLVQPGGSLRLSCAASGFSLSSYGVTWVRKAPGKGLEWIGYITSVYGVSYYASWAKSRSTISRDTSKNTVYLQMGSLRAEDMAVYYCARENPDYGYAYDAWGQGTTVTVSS VL: AIRMTQSPSSFSASTGDRVTITCQASESISNELSWYQEKPGKAPKLLIYYASTLASGVPSRFSGSGSGTDFTLTISSLQPEDFATYYCAQGFGSFGVENVFGGGTKVEIK; 11.59
